These measurements were taken from patent US20260242478A1.

Below, each entry is listed with its recorded Phage binding ELISA, Anti-PSMA Fab signal in the presence of PSMA.
SYSTEM: T1, Anti-PSMA Fab (SEQ ID NOs: 19, 20) (biotinylated (site not stated))
T1 construct: also called 006 PSMA Fab
ASSAY NOTES: phage ELISA; biotinylated PSMA Fab on neutravidin plate, wells pre-incubated with PSMA antigen as competitor, anti-M13 HRP detection
Where no end group is shown, it is not given here.
The reply should be a number, written without any unit.

Here's what some known entries look like.
In plain terms, VEKWCIPTWMCELS (Clonal phage of the Peptide-180 library, tested as crude supernatant; not shown: fused to the pIII filament protein of the bacteriophage) [Phage-1923] has a documented Phage binding ELISA, Anti-PSMA Fab signal in the presence of PSMA of 0.0767

In plain terms, AEKWCIPAWMCEAM (Clonal phage of the Peptide-180 library, tested as crude supernatant; not shown: fused to the pIII filament protein of the bacteriophage) [Phage-1929] has a documented Phage binding ELISA, Anti-PSMA Fab signal in the presence of PSMA of 0.0668

In plain terms, DFKWCTPMWMCEHL (Clonal phage of the Peptide-180 library, tested as crude supernatant; not shown: fused to the pIII filament protein of the bacteriophage) [Phage-1932] has a documented Phage binding ELISA, Anti-PSMA Fab signal in the presence of PSMA of 0.106

In plain terms, TEMWCKPAWMCTGF (Clonal phage of the Peptide-180 library, tested as crude supernatant; not shown: fused to the pIII filament protein of the bacteriophage) [Phage-1925] has a documented Phage binding ELISA, Anti-PSMA Fab signal in the presence of PSMA of 0.0938

In plain terms, VDRWCVPVWMCEGL (cysteine pairing not given here; also: displayed as fusion to phage pIII, Clonal phage of the Peptide-180 library, tested as crude supernatant; not shown: fused to the pIII filament protein of the bacteriophage) [Phage-1921] has a documented Phage binding ELISA, Anti-PSMA Fab signal in the presence of PSMA of 0.124

In plain terms, WENWCTPAWMCSHM (Clonal phage of the Peptide-180 library, tested as crude supernatant; not shown: fused to the pIII filament protein of the bacteriophage) [Phage-1927] has a documented Phage binding ELISA, Anti-PSMA Fab signal in the presence of PSMA of 0.1

***
In plain terms, WDRLCTPAWMCTGF (Clonal phage of the Peptide-180 library, tested as crude supernatant; not shown: fused to the pIII filament protein of the bacteriophage) [Phage-1931] has a documented Phage binding ELISA, Anti-PSMA Fab signal in the presence of PSMA of 0.104
